Data origin, for the record: patent US20220033407A1

biological target: delF508-CFTR-HRP (Homo sapiens, UniProt P13569, DEL508-508); construct: expressed in transfected cells; test: Measurement of delF508-CFTR-HRP surface expression in CFBE41o- cells (HRP luminescence); type: cell-based; conditions: CFBE41o-, read-out: DelF508-CFTR-HRP Amax %;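 note: percent efficacy relative to a reference CFTR corrector compound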
Sequence (P13569 with tags, fused parts or gaps DEL508-508): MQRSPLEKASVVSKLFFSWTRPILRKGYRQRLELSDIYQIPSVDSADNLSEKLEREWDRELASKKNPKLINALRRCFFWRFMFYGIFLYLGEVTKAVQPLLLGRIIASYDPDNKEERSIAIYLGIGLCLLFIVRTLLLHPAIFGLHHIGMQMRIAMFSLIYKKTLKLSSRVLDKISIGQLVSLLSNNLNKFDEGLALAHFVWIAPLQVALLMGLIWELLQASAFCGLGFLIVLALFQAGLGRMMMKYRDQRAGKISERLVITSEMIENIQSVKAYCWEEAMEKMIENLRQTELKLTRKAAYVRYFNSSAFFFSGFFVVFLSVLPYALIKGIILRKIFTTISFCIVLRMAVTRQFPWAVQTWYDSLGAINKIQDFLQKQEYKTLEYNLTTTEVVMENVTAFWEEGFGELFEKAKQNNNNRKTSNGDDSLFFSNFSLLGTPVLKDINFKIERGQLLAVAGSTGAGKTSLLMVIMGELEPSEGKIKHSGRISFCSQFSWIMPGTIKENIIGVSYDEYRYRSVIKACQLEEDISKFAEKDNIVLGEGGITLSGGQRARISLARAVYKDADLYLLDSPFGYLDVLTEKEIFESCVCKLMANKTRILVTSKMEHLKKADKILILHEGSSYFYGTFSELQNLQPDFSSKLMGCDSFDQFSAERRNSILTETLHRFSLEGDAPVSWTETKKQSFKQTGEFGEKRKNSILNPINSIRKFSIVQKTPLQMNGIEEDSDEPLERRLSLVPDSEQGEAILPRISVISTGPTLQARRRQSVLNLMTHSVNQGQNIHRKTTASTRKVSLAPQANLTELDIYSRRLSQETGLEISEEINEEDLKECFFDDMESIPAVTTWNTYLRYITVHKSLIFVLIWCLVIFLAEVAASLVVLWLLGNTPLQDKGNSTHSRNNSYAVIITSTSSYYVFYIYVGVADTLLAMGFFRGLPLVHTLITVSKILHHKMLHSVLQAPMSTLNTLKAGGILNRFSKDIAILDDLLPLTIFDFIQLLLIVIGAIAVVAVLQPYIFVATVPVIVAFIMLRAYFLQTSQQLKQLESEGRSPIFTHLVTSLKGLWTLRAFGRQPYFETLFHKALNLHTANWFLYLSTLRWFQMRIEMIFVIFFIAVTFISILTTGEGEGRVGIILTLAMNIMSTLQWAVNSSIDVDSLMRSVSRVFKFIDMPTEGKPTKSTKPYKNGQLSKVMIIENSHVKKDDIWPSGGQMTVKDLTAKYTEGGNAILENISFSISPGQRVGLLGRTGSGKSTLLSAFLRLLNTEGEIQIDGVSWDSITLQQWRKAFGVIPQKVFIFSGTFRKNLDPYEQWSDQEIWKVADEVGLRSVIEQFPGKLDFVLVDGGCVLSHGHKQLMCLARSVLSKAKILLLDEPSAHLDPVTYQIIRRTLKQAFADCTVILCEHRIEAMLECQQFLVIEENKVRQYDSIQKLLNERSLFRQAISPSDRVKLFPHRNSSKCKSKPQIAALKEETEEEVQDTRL
Emax values for the compounds below.
Write it as a number; the unit % goes unstated.

O=C(NS(=O)(=O)c1cccc(N2CC[C@H](O)C2)n1)C1(Oc2cc(Cl)ccc2N2CCC3(CCCC3)CC2)CC1 [Example 9-13] :: 638

INPUT: Answer with the recorded Emax of O=C(NS(=O)(=O)c1cccc(N2CC(O)C2)n1)C1(Oc2cc(Cl)ccc2C2CC3(CCC3)C2)CC1 [Example 7-9] only.
OUTPUT: 300

INPUT: Answer with the recorded Emax of O=C(NS(=O)(=O)c1cccc(N2CC[C@@H](O)C2)n1)C1(Oc2cc(Cl)ccc2N2CCC3(CC2)CC3)CC1 [Example 9-29] only.
OUTPUT: 691

INPUT: Answer with the recorded Emax of O=C(NS(=O)(=O)c1cccc(N2CC[C@H](O)C2)n1)C1(Oc2cc(Cl)ccc2-c2cccc(C(F)(F)F)c2)CC1 [Example 5-2] only.
OUTPUT: 313

INPUT: Answer with the recorded Emax of Cc1ccc(-c2cccc(OC(F)(F)F)c2)c(OC2(C(=O)NS(=O)(=O)c3cccc(N4CC(C)(O)C4)n3)CC2)c1 [Example 5-8] only.
OUTPUT: 371

INPUT: Answer with the recorded Emax of Cc1ccc(C2CCCCC2)c(OC2(C(=O)NS(=O)(=O)c3cccc(N(C)CC(C)O)n3)CC2)c1 (stereo not shown) [Example 2-48] only.
OUTPUT: 620
